The measured values listed here are drawn from ChEMBL document CHEMBL4385621.

tested on: A549; test: Antiproliferative activity against human A549 cells assessed as reduction in cell viability after 48 hrs by SRB assay; format: functional, cell-based; conditions: A549, 48 h
RECORDED_METRIC: IC50 (µM)

a = COc1cc(/C=C(/C(=O)NCc2cc3c([nH]c4ccccc43)c(-c3cccc(F)c3)n2)c2cc(OC)c(OC)c(OC)c2)ccc1OC(C)=O
b = COc1cc(/C(=C\c2cccc(F)c2)C(=O)NCc2cc3c([nH]c4ccccc43)c(-c3cccc(F)c3)n2)cc(OC)c1OC
c = COc1ccc(-c2nc(CNC(=O)/C(=C/c3ccc(C(F)(F)F)cc3)c3cc(OC)c(OC)c(OC)c3)cc3c2[nH]c2ccccc23)cc1
[Q] # sort list by recorded IC50, greatest to least As an answer, provide the labels arranged in the order called for.
[A] a, b, c

----------
tested on: A549; assay: Antiproliferative activity against human A549 cells assessed as reduction in cell viability after 48 hrs by SRB assay; assay type: functional, cell-based; conditions: A549, 48 h
RECORDED_METRIC: IC50 (nM)

Worked cases, IC50 given:
[
  {
    "MOLECULE": "COc1ccc(/C=C(/C(=O)NCc2cc3c([nH]c4ccccc43)c(-c3cc(OC)c(OC)c(OC)c3)n2)c2cc(OC)c(OC)c(OC)c2)cc1",
    "TESTED_SYSTEM": "A549",
    "VALUE_UNIT": "nM",
    "IC50": 2230
  },
  {
    "MOLECULE": "COc1cc([C@@H]2c3cc4c(cc3[C@@H](O[C@@H]3O[C@@H]5CO[C@@H](C)O[C@H]5[C@H](O)[C@H]3O)[C@H]3COC(=O)[C@H]23)OCO4)cc(OC)c1O [ETOPOSIDE]",
    "TESTED_SYSTEM": "A549",
    "VALUE_UNIT": "nM",
    "IC50": 2170
  },
  {
    "MOLECULE": "COc1ccc(/C=C(/C(=O)NCc2cc3c([nH]c4ccccc43)c(-c3cccc(F)c3)n2)c2cc(OC)c(OC)c(OC)c2)cc1O",
    "TESTED_SYSTEM": "A549",
    "VALUE_UNIT": "nM",
    "IC50": 1620
  },
  {
    "MOLECULE": "COc1cc(/C=C(/C(=O)NCc2cc3c([nH]c4ccccc43)c(-c3cccc(F)c3)n2)c2cc(OC)c(OC)c(OC)c2)cc(OC)c1",
    "TESTED_SYSTEM": "A549",
    "VALUE_UNIT": "nM",
    "IC50": 1990
  },
  {
    "MOLECULE": "COc1cc(/C(=C\\c2ccc(C)cc2)C(=O)NCc2cc3c([nH]c4ccccc43)c(-c3cccc(F)c3)n2)cc(OC)c1OC",
    "TESTED_SYSTEM": "A549",
    "VALUE_UNIT": "nM",
    "IC50": 1310
  }
]

a = COc1cc(/C(=C\c2ccc(C(F)(F)F)cc2)C(=O)NCc2cc3c([nH]c4ccccc43)c(-c3cc(OC)c(OC)c(OC)c3)n2)cc(OC)c1OC
b = COc1ccc(-c2nc(CNC(=O)/C(=C/c3ccc(OC)c(O)c3)c3cc(OC)c(OC)c(OC)c3)cc3c2[nH]c2ccccc23)cc1
c = COc1cc(/C=C(/C(=O)NCc2cc3c([nH]c4ccccc43)c(-c3cc(OC)c(OC)c(OC)c3)n2)c2cc(OC)c(OC)c(OC)c2)ccc1O
d = COc1ccc(/C=C(/C(=O)NCc2cc3c([nH]c4ccccc43)c(-c3cccc(F)c3)n2)c2cc(OC)c(OC)c(OC)c2)cc1
e = COc1cc(/C(=C\c2cccc(F)c2)C(=O)NCc2cc3c([nH]c4ccccc43)c(-c3cc(OC)c(OC)c(OC)c3)n2)cc(OC)c1OC
[Q] List by increasing IC50. As an answer, provide the labels arranged in the order called for.
[A] a, e, b, c, d

----------
test system: A549; test: Antiproliferative activity against human A549 cells assessed as reduction in cell viability after 48 hrs by SRB assay; format: functional, cell-based; details: A549, 48 h
pIC50: −log10 of the molar value.
RECORDED_METRIC: pIC50

[
  {
    "COMPOUND_STRING": "CCOc1ccccc1/C=C(/C(=O)NCc1cc2c([nH]c3ccccc32)c(-c2cc(OC)c(OC)c(OC)c2)n1)c1cc(OC)c(OC)c(OC)c1",
    "pIC50": 4.73
  },
  {
    "COMPOUND_STRING": "COc1ccc2c(c1)[nH]c1c(C)nccc12",
    "pIC50": 5.23
  },
  {
    "COMPOUND_STRING": "COc1cc(/C=C(/C(=O)NCc2cc3c([nH]c4ccccc43)c(-c3cccc(F)c3)n2)c2cc(OC)c(OC)c(OC)c2)cc(OC)c1OC",
    "pIC50": 4.91
  }
]

----------
test system: A549; test: Antiproliferative activity against human A549 cells assessed as reduction in cell viability after 48 hrs by SRB assay; assay type: functional, cell-based; conditions: A549, 48 h
RECORDED_METRIC: IC50 (µM)

Worked cases, IC50 given:
[
  {
    "COMPOUND_STRING": "COc1ccc(-c2nc(CNC(=O)/C(=C/c3ccc(OC(C)=O)c(OC)c3)c3cc(OC)c(OC)c(OC)c3)cc3c2[nH]c2ccccc23)cc1",
    "IC50, µM": 5.49
  },
  {
    "COMPOUND_STRING": "COc1cc(/C(=C\\c2ccc(C)cc2)C(=O)NCc2cc3c([nH]c4ccccc43)c(-c3cc(OC)c(OC)c(OC)c3)n2)cc(OC)c1OC",
    "IC50, µM": 1.12
  },
  {
    "COMPOUND_STRING": "COc1cc(/C=C(/C(=O)NCc2cc3c([nH]c4ccccc43)c(-c3cc(OC)c(OC)c(OC)c3)n2)c2cc(OC)c(OC)c(OC)c2)ccc1OC(C)=O",
    "IC50, µM": 7.08
  },
  {
    "COMPOUND_STRING": "COc1cc(/C(=C\\c2ccc(Cl)cc2)C(=O)NCc2cc3c([nH]c4ccccc43)c(-c3cccc(F)c3)n2)cc(OC)c1OC",
    "IC50, µM": 22.2
  },
  {
    "COMPOUND_STRING": "CCOc1ccccc1/C=C(/C(=O)NCc1cc2c([nH]c3ccccc32)c(-c2cccc(F)c2)n1)c1cc(OC)c(OC)c(OC)c1",
    "IC50, µM": 2.95
  },
  {
    "COMPOUND_STRING": "COc1ccc(/C=C(/C(=O)NCc2cc3c([nH]c4ccccc43)c(-c3cc(OC)c(OC)c(OC)c3)n2)c2cc(OC)c(OC)c(OC)c2)cc1O",
    "IC50, µM": 7.55
  }
]

I = COc1ccc(-c2nc(CNC(=O)/C(=C/c3ccc(C)cc3)c3cc(OC)c(OC)c(OC)c3)cc3c2[nH]c2ccccc23)cc1
II = COc1cc(/C=C(/C(=O)NCc2cc3c([nH]c4ccccc43)c(-c3cc(OC)c(OC)c(OC)c3)n2)c2cc(OC)c(OC)c(OC)c2)cc(OC)c1OC
[Q] Sort I and II by IC50 descending and give the first. Pick one and reply with its label.
[A] II

----------
system: A549; assay: Antiproliferative activity against human A549 cells assessed as reduction in cell viability after 48 hrs by SRB assay; format: functional, cell-based; settings: A549, 48 h
RECORDED_METRIC: IC50 (µM)

Worked cases, IC50 given:
[
  {
    "COMPOUND_STRING": "COc1ccc(/C=C(/C(=O)NCc2cc3c([nH]c4ccccc43)c(-c3cccc(F)c3)n2)c2cc(OC)c(OC)c(OC)c2)cc1OC(C)=O",
    "IC50 / µM": 3.07
  },
  {
    "COMPOUND_STRING": "COc1cc(/C=C(/C(=O)NCc2cc3c([nH]c4ccccc43)c(-c3cccc(F)c3)n2)c2cc(OC)c(OC)c(OC)c2)ccc1O",
    "IC50 / µM": 2.55
  },
  {
    "COMPOUND_STRING": "COc1ccc(-c2nc(CNC(=O)/C(=C/c3cc(OC)cc(OC)c3)c3cc(OC)c(OC)c(OC)c3)cc3c2[nH]c2ccccc23)cc1",
    "IC50 / µM": 2.76
  }
]

a = COc1cc(/C=C(/C(=O)NCc2cc3c([nH]c4ccccc43)c(-c3cc(OC)c(OC)c(OC)c3)n2)c2cc(OC)c(OC)c(OC)c2)cc(OC)c1
b = CCOc1ccccc1/C=C(/C(=O)NCc1cc2c([nH]c3ccccc32)c(-c2ccc(OC)cc2)n1)c1cc(OC)c(OC)c(OC)c1
c = COc1ccc(/C=C(/C(=O)NCc2cc3c([nH]c4ccccc43)c(-c3cc(OC)c(OC)c(OC)c3)n2)c2cc(OC)c(OC)c(OC)c2)cc1OC(C)=O
d = COc1ccc(-c2nc(CNC(=O)/C(=C/c3ccc(O)c(OC)c3)c3cc(OC)c(OC)c(OC)c3)cc3c2[nH]c2ccccc23)cc1
[Q] List by increasing IC50. As an answer, provide the labels arranged in the order called for.
[A] c, d, a, b
(c: 1.16 µM, d: 1.79 µM, a: 3.38 µM, b: 11.7 µM)
